Measured Avg % Edit, listed per entry.
- Tested on: TTR
- test: TTR editing in HEK293_Cas9 cells transfected with dgRNAs (Table 4)
- Format: cell-based, human
- experimentalParameters: HEK293_Cas9 cells (constitutively express Spy Cas9) transfected with dgRNAs
Could you give me the number in %? Just the number is fine.

A selection of reference data follows.
- macromoleculeSequence: "AAAUAGACACCAAAUCUUAC (tested as dual guide RNA, chemistry not given here) [CR003366]"
  Avg % Edit [%]: 47.36
- macromoleculeSequence: "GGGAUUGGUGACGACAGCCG (tested as dual guide RNA, chemistry not given here) [CR003390]"
  Avg % Edit [%]: 28.02
- macromoleculeSequence: "AUGCAGCUCUCCAGACUCAC (tested as dual guide RNA, chemistry not given here) [CR003358]"
  Avg % Edit [%]: 5.44
- macromoleculeSequence: "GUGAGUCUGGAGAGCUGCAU (tested as dual guide RNA, chemistry not given here) [CR003360]"
  Avg % Edit [%]: 22.68
- macromoleculeSequence: "GGGCGGCAAUGGUGUAGCGG (tested as dual guide RNA, chemistry not given here) [CR003379]"
  Avg % Edit [%]: 26.32
- macromoleculeSequence: "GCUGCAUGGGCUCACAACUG (tested as dual guide RNA, chemistry not given here) [CR003361]"
  Avg % Edit [%]: 34.45
- macromoleculeSequence: "AAGUGCCUUCCAGUAAGAUU (tested as dual guide RNA, chemistry not given here) [CR003368]"
  Avg % Edit [%]: 40.35
- macromoleculeSequence: "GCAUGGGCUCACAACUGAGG (tested as dual guide RNA, chemistry not given here) [CR003362]"
  Avg % Edit [%]: 9.90

Qu. Consider the sequence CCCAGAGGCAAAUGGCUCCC (tested as dual guide RNA, chemistry not given here) [CR003355] and give its recorded Avg % Edit.
Ans. 30.60

Qu. Consider the sequence CACAUGCACGGCCACAUUGA (tested as dual guide RNA, chemistry not given here) [CR003350] and give its recorded Avg % Edit.
Ans. 22.31

Qu. Consider the sequence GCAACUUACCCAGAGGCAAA (tested as dual guide RNA, chemistry not given here) [CR003356] and give its recorded Avg % Edit.
Ans. 32.21

Qu. Consider the sequence GACGACAGCCGUGGUGGAAU (tested as dual guide RNA, chemistry not given here) [CR003388] and give its recorded Avg % Edit.
Ans. 19.23

Qu. Consider the sequence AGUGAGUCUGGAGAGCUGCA (tested as dual guide RNA, chemistry not given here) [CR003359] and give its recorded Avg % Edit.
Ans. 37.75

Qu. Consider the sequence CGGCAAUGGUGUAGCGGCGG (tested as dual guide RNA, chemistry not given here) [CR003376] and give its recorded Avg % Edit.
Ans. 28.16

Qu. Consider the sequence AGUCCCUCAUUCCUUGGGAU (tested as dual guide RNA, chemistry not given here) [CR003392] and give its recorded Avg % Edit.
Ans. 21.67

Qu. Consider the sequence AGCCUUUCUGAACACAUGCA (tested as dual guide RNA, chemistry not given here) [CR003351] and give its recorded Avg % Edit.
Ans. 49.67

Qu. Consider the sequence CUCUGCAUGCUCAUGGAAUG (tested as dual guide RNA, chemistry not given here) [CR003369] and give its recorded Avg % Edit.
Ans. 33.10

Qu. Consider the sequence UCUAGAACUUUGACCAUCAG (tested as dual guide RNA, chemistry not given here) [CR003345] and give its recorded Avg % Edit.
Ans. 35.02

Qu. Consider the sequence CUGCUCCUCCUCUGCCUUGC (tested as dual guide RNA, chemistry not given here) [CR003335] and give its recorded Avg % Edit.
Ans. 26.59

Qu. Consider the sequence AAUAGGAGUAGGGGCUCAGC (tested as dual guide RNA, chemistry not given here) [CR003384] and give its recorded Avg % Edit.
Ans. 17.45
